Biological target: TRPA1 receptor (Homo sapiens);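 also: values above 100 mean more active than the control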
Construct: expressed in transfected cells; host or cells: HEK cell line
Assay: cell-based
Design: dose or concentration left out as unconfirmed
Settings: HEK293; percentage of the control (allyl isothiocyanate) calcium count; material dissolved in DMSO at 100 micromolar; HEK cells with TRPA1; pre-incubation; read-out: TRPA1 Pre-incubation
# label = fulfilled if activation >= 70% else not fulfilled

* CC(=O)OCC(COC(C)=O)OC(C)=O [Triacetin] | fulfilled
* CCCCCCCCCC(C)C=O (stereo not drawn) [2-Methylundecanal] | fulfilled
* Cc1cnc(C)cn1 [2,5-Dimethylpyrazine] | not fulfilled
* CC(C)CCOC(=O)CC(C)C [Isoamyl Isovalerate] | not fulfilled
* CCC=C(C)C(=O)O [2-Methyl-2-Pentenoic Acid] | fulfilled
* CCC=C1OC(=O)c2ccccc21 [3-Propylidenephthalide] | not fulfilled
* COc1ccccc1O [Guaiacol] | fulfilled
* CCOCc1ccccc1 [Benzyl Ethyl Ether] | not fulfilled

* * *

Molecular target: TRPA1 receptor (Homo sapiens, UniProt O75762);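 also: values above 100 mean more active than the control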
Construct: expressed in transfected cells; host or cells: HEK cell line
Sequence (O75762 whole entry): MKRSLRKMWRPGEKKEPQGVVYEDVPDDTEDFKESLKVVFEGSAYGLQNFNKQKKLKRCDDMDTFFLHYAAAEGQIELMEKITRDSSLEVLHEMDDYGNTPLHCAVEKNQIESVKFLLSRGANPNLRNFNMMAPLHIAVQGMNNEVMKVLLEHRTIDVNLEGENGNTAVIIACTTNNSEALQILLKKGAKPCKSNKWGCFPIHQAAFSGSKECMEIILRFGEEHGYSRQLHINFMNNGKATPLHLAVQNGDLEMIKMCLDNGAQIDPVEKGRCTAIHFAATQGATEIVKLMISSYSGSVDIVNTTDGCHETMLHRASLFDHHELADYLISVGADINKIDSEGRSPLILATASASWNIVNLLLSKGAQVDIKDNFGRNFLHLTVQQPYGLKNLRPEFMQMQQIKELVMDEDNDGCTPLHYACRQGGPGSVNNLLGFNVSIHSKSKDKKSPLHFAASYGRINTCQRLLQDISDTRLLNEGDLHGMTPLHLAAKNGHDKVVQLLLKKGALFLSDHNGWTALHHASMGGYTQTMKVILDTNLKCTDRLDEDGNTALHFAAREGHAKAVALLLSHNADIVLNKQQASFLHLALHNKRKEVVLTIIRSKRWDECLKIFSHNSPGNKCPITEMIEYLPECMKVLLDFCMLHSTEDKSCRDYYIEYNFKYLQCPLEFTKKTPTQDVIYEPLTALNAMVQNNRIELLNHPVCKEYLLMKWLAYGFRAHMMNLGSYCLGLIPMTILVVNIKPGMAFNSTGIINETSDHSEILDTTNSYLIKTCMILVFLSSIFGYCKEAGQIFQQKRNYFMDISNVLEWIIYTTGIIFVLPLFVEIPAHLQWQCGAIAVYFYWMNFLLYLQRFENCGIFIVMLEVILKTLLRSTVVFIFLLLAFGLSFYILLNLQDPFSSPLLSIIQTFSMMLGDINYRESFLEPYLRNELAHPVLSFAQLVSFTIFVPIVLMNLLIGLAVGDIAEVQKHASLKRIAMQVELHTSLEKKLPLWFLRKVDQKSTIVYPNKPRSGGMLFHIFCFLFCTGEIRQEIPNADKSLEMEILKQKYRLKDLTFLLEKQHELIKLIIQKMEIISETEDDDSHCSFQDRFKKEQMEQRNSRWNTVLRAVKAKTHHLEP
Format: cell-based
Conditions: percentage of the control (allyl isothiocyanate) calcium count, material dissolved in DMSO at 100 micromolar, HEK cells with TRPA1
endpoint_label: TRPA1 Pre-incubation (%)

• C=CCCCCCCCCC=O = 52.14
• CCOC(=O)C1OC1(C)c1ccccc1 (stereo not shown) [Ethyl 3-Methyl-3-Phenylglycidate] = 77.42
• C/C=C/C(=O)C1C(C)C=CCC1(C)C (stereo not shown) = 138.93
• CCC(C)C=O (stereo not shown) = 35.61
• CCC=CCCOC(=O)CC(C)C [3-Hexenyl-3-Methylbutanoate] = 88.62
• Cc1ccc(C=O)cc1 = 60.52
• Cc1nc(C)c(C)s1 = 64.86
• CC(=O)c1nccs1 = 57.82
• COC(=O)CCCc1ccccc1 [Methyl 4-Phenyl butyrate] = 98.83
• COc1ccc(CC(C)=O)cc1 = 77.63
• CCC1OC(C)=C(O)C1=O (stereo not shown) [2-Ethyl-4-Hydroxy-5-Methyl-3(2) Furanone] = 78.56
• CC(=O)C1(C)CC2=C(CCCC2(C)C)CC1C (stereo not shown) = −0.4
• O=C(O)C(O)C(O)C(=O)O (stereo not shown) = 79
• CCCCOC(=O)C(C)OC(=O)CCC (stereo not shown) [Butyl Butyryllactate] = 39.69
• CC(=O)/C=C/C1C(C)=CCCC1(C)C (stereo not shown) = 111.19
• CCCC1CCC(=O)O1 (stereo not shown) = 51.03
• CC1=C(CCC(C)O)C(C)(C)CCC1 (stereo not drawn) [Dihydro-beta-ionol] = 97.15
• CC(C)C(=O)O = 78.64
• CC(C)=CCC/C(C)=C/C=O = 41.41
• CCCC/C=C/C=C/C=O [trans,trans,-2,4-Nonadienal] = −4.24
• CC1CCC(C(C)(C)S)C(=O)C1 (stereo not shown) = 73.82
• CCCc1ccc(O)c(OC)c1 [Dihydroeugenol] = 103.71
• C/C(C=O)=C\c1ccccc1 [Alpha-Methyl-Trans-Cinnamaldehyde] = 72.88
• CCOC(=O)C1OC1c1ccccc1 (stereo not shown) [Ethyl-3-Phenylglycinate] = 54.22
• CCC(C)(O)CCCC(C)C (stereo not shown) [Tetrahydrolinalool] = 70.8
• CC(C)=CC1CC(C)CCO1 (racemic) [Rose Oxide Racemic] = 80.14
• CC(=O)/C(C)=C/C1C(C)=CCCC1(C)C (stereo not shown) = 23.55
• CCCCCCCCCCCC=O = 85.96
• CCc1nc(C)cs1 = 62.39
• COc1ccc(C(C)=O)cc1 = 83.69
• C=C(C)C1CC=C(C)C(OC(C)=O)C1 (stereo not shown) [carvyl acetate] = 117.9
• C=C(OCC)C1C(C)(C)CC(=O)CC1(C)C = 83.88
• CCCCCC(C)=O = 69.5
• C=C[C@](C)(O)CCC=C(C)C = 65.28
